- System: SR
- experiment.summary: NCI tumour cell line growth inhibition, 48 h
The source made the active and inactive calls. Rule as the data show it: active = GI50 up to about 1.1 µM and inactive = higher.
readout.label: GI50

# compound, GI50
measured = [
    ("Nc1cc(OCc2ccccc2)c(OCc2ccccc2)cc1C=O", "26.6 µM (inactive)"),
    ("Cc1cc(=O)nc(S(=O)(=O)NC(=S)Nc2ccc(Cl)cc2)[nH]1", "18.8 µM (inactive)"),
    ("CCOC(=O)C1(C(F)(F)F)N=C(CC)OC(N2CCOCC2)=N1 (stereo not drawn)", "> 100 µM (inactive)"),
    ("O=c1c2c3c(sc2nc2n1N=C(c1ccc(Br)cc1)CS2)CCCC3", "> 100 µM (inactive)"),
    ("Cc1ccc(S(=O)(=O)N(CCN2C(=O)c3ccccc3C2=O)c2cc3c4c(c2)Oc2cc(N(CCN5C(=O)c6ccccc6C5=O)S(=O)(=O)c5ccc(C)cc5)cc5c2C4(C)c2c(cc(N(CCN4C(=O)c6ccccc6C4=O)S(=O)(=O)c4ccc(C)cc4)cc2O5)O3)cc1", "> 100 µM (inactive)"),
    ("CC1=C2C(=O)c3ccccc3C(=O)[C@H]2C[C@@H](N2CCCC2=O)O1", "32.2 µM (inactive)"),
    ("C=CC[C@H]1[C@@H](O[Si](C)(C)C(C)(C)C)[C@H](n2ccc(=O)[nH]c2=O)O[C@@H]1CO[Si](C)(C)C(C)(C)C", "2.44 µM (inactive)"),
    ("CCOC(=O)C(C)(NC(=O)c1ccc(NCc2ccc3nc(NC(=O)c4ccccc4)nc(NC(=O)c4ccccc4)c3c2)cc1)C(=O)OCC", "34.9 µM (inactive)"),
]

Form field GI50 for item "COC(=O)NC(Nc1ccc(C)cc1)(C(F)(F)F)C(F)(F)F" on SR: 61.2 µM (inactive)

Form field GI50 for item "CCC1(CC)C(=O)CC[C@@]2(C)C1=CC[C@H]1[C@@H]3CC[C@H](O)[C@@]3(C)CC[C@@H]12" on SR: 15.4 µM (inactive)

Form field GI50 for item "NCCCCC(=O)c1cccnc1" on SR: > 100 µM (inactive)

* * *

- Test system: UO-31
- experiment.summary: NCI tumour cell line growth inhibition, 48 h
Activity calls are given as the source filed them. No stated cut-off is given here; in the data, active = GI50 up to about 1.1 µM and inactive = higher.
Valid outcomes are listed here; reply with one: active, inactive

Record excerpt, results attached:
# molecule, target.or.system, assigned.category
measured = [
    ("CCC(C)C(=O)OC1CC2(C)C(c3ccoc3)OC(=O)CC23OC2(C)OC34C(OC(=O)C(C)C)C3(O)C(OC(=O)C5(C)OC5C)C5(C)CC3(O)C(C)(C5CC(=O)OC)C14O2 (centres undefined)", "UO-31", "inactive"),
    ("CC(NNC(=O)c1ccncc1)c1ccc(Cl)cc1Cl (centres undefined)", "UO-31", "inactive"),
    ("CCC(C)C1=C(OC(C)=O)[N+]2([O-])Oc3ccc(-c4c(OC(C)=O)c(OC(C)=O)c(-c5ccc(OC(C)=O)cc5)c(OC(C)=O)c4OC(C)=O)cc3OC2(C(C)CC)C(=O)N1OC(C)=O (centres undefined)", "UO-31", "inactive"),
]

Q) Record lookup: outcome of this test for CCCCCCC(C)OC(=O)/C=C(\CC(=O)OC(C)CCCCCC)C(=O)OC(C)CCCCCC (centres undefined) ?
A) inactive

Q) Record lookup: outcome of this test for "O=C(/C=C(O)/C(=C/C(=O)c1ccccc1)NN=C(c1ccccc1)c1ccccc1)c1ccccc1" ?
A) inactive

Q) Record lookup: outcome of this test for "COC(=O)CCCc1ccc2c(c1)CC1(Cc3ccccc3C1)C2" ?
A) inactive

Q) Record lookup: outcome of this test for Cc1ccccc1N1C(N)=C(C#N)C(C#N)(C#N)C1c1ccccc1 (centres undefined) ?
A) inactive

Q) Record lookup: outcome of this test for C=C1C2CCC3(CCC4C5(C)CCCC4(C=[N+](CCO)C5)C3C2)C1O (centres undefined) ?
A) inactive

Q) Record lookup: outcome of this test for "CC[C@H]1CN2CCc3cc(OC)c(OC)cc3[C@@H]2C[C@@H]1C[C@H]1NCCc2cc(O)c(OC)cc21" ?
A) active

Q) Record lookup: outcome of this test for "CC1CCN(c2nnc(Cl)cc2C(=O)c2ccccc2)CC1" ?
A) inactive

Values compiled from ChEMBL document CHEMBL1201862.
